# experimental.system: TDP-43 (Homo sapiens, UniProt Q13148 1-414)
# Sequence (Q13148 whole entry): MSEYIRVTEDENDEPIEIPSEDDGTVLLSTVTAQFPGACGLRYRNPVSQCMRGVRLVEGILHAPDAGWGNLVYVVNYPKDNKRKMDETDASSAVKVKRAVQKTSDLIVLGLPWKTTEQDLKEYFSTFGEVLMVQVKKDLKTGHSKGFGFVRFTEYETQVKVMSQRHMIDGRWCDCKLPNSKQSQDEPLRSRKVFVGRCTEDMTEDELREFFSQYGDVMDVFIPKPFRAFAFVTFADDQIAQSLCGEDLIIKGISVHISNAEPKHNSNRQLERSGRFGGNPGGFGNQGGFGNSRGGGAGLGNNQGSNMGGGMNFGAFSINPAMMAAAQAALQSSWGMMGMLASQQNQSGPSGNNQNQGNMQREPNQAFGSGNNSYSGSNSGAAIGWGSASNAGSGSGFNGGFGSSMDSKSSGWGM
# procedure.details: RNA Bind-n-Seq with designed 260-mer pool; 25 mM Tris-HCl, 150 mM KCl, 3 mM MgCl2, BSA (printed 500 mg/mL), 20 units/mL SUPERase IN; pH not stated; 500 nM RNA pool, 1 h, 4 C; TDP-43 5, 50, 500 nM; high values mean tight binding
# assay.setup: protein: recombinant; tags: SBP (GST cleaved off with PreScission; pGEX-GST-SBP)
In all, about 9,900 sequences were measured (“r (bound/input frequency ratio)”: median about 0.7, highest 2% from about 6.5 on). The full list was thinned out, with the highest values kept by preference.
outcome.measure: binding signal

Prompt line: Determine its reported binding signal: ENSMUSG00000028439.89|Fam219a|94:98 (ssRNA) RNA: GGGAGUUCUACAGUCCGACGAUCGCUUCGAUAUCCGCAUGCUAGGGUUUUGAGAAGAAAAGGAUCCAAGCAAUGGGGGCAGUUCUCACACCUCAGAGCCCCUCUCCCCAAACCCUGUGCCAGCCCAUAUACCUAUUACACAUUUCCCCUCAUCUCCAGAUGGGAAGCCUGGCAGCGCUGUCCAAAGGGAUACUGUCUCUCCAUUAGAUAACUCCUUCCACUGUCUCCCUCCCCCGCUUUCUUACUUUCUGAGGGUUGGGAAGGUAAGAUGGGCCUUAGAGAGAAGCCAGGUUUGGGGAUGGUACUCUUGCGGUCGCACUAGUGUGGAAUUCUCGGGUGUCAAGG
Response line: 0.538 R (bound/input frequency ratio)

Prompt line: Determine its reported binding signal: ENSMUSG00000004113.287|Cacna1b (ssRNA) RNA: GGGAGUUCUACAGUCCGACGAUCGCUUCGAUAUCCGCAUGCUAAAAGGGAAAACCCAUGCUCAGGAAGGUGUUCAGUGUGCACAGAUAGCUGGGAGGCCACGAGAGAAAGGUUGCACACAGACAGGCAGGCACUCCUUGGUGUGGUCUCUCUGUUUUGAAACUUCUGAUGACUUCUUGGUGGCUUGUUGUCUUCUACCCCAUGUUUCUCACAGGAUCUGUGUGUGUGUGUGUGUGUGUGUGUGUGUGUGUGUGUGUGUGUGUUAGCAUGUGUGUAUUAGCGUGUGUGAGUGUGUGAGCAUGCACUCUUGCGGUCGCACUAGUGUGGAAUUCUCGGGUGUCAAGG
Response line: 5.32 R (bound/input frequency ratio)

Prompt line: Determine its reported binding signal: ENSMUSG00000004113.285|Cacna1b (ssRNA) RNA: GGGAGUUCUACAGUCCGACGAUCGCUUCGAUAUCCGCAUGCUAUGGCUGCUUUGCAAAGGGAAAACCCAUGCUCAGGAAGGUGUUCAGUGUGCACAGAUAGCUGGGAGGCCACGAGAGAAAGGUUGCACACAGACAGGCAGGCACUCCUUGGUGUGGUCUCUCUGUUUUGAAACUUCUGAUGACUUCUUGGUGGCUUGUUGUCUUCUACCCCAUGUUUCUCACAGGAUCUGUGUGUGUGUGUGUGUGUGUGUGUGUGUGUGUGUGUGUGUGUGUUAGCAUGUGUGUAUUAGCGUGUGUGAGUGCUCUUGCGGUCGCACUAGUGUGGAAUUCUCGGGUGUCAAGG
Response line: 7.91 R (bound/input frequency ratio)

Prompt line: Determine its reported binding signal: ENSMUSG00000031028.526|Tub (ssRNA) RNA: GGGAGUUCUACAGUCCGACGAUCGCUUCGAUAUCCGCAUGCUACUUUCUCUUUUAUGGAAAUGGCAGGUCUAUUUGCCUCAAACGUUAUGUAGAAGUAGUUCUAAGUUUAACAAGCAAUAGAGAUGACUGCUUAGCUAGGAUCUGCAGGGAGCUCUGCUCUGCAAGCACAACACCUGUCUCAUAGAUGGACAGCCUGGUUUCCCUUCUCAGCAGUCCUGGCCUCCCCUUCUCUGUAUUCCUUGCCCCAGCUACGAUAUCCUCAUGGGAUUUCAGGAUGCCAGGUGCCAUCAAAGCAUGCUUUUCUCUUGCGGUCGCACUAGUGUGGAAUUCUCGGGUGUCAAGG
Response line: 0.219 R (bound/input frequency ratio)
